koff overview
target: T1, cynomolgus suPAR (cynomolgus, UniProt Q9GK78 23-303, limits assumed); assay: BLI (Octet) off-rate screen of scFv clones
T1 construct: Target antigen of the off-rate screen; also called cynomolgus uPAR; cynoPLAUR-His
T1 sequence (Q9GK78 23-303 limits assumed): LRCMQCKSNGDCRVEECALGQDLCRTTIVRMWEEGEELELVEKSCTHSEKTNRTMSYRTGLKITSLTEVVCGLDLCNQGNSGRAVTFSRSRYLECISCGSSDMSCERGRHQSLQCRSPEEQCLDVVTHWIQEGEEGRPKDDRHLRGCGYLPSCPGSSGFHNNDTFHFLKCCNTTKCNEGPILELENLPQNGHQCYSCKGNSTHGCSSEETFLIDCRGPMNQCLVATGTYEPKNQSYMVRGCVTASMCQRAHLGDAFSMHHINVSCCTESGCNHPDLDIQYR
The reply should contain only the number, in s⁻¹.

- suPAR_DB03_D04 (scFv, V domains shown, screened as scFv) VH: QVQLVQSGAEVKKPGASVKVSCKASGYTFTNYYMHWVRQAPGQGLEWMGWIDPENGSTIYDQKFQGRVTMTRDTSTSTVYMELSSLRSEDTAVYYCARGYDVDWFVYWGQGTLVTVSS VL: DIQMTQSPSSLSASVGDRVTITCSARSSVSYMYWYQQKPGKAPKLLIYRTSNLASGVPSRFSGSGSGTDFTLTISSLQPEDFATYYCQQSHSYPPTFGGGTKVEIK: 0.0059
- suPAR_DB03_C09 (scFv, V domains shown, screened as scFv) VH: QVQLVQSGAEVKKPGASVKVSCKASGYTFTSYYMHWVRQAPGQGLEWMGWIDHENGSTIYDQKFQGRVTMTRDTSTSTVYMELSSLRSEDTAVYYCARGYDVDWFVYWGQGTLVTVSS VL: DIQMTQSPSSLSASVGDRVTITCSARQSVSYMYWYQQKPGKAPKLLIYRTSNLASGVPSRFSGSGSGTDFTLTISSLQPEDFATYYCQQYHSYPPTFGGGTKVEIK: 3.75e-07
- suPAR_DB03_B01 (scFv, V domains shown, screened as scFv) VH: QVQLVQSGAEVKKPGASVKVSCKASGNTFTGHYMQWVRQAPGQGLEWMGWIDHENGNTSYAQKFQGRVTMTRDTSTSTVYMELSSLRSEDTAVYYCARGYDVDWFVYWGQGTLVTVSS VL: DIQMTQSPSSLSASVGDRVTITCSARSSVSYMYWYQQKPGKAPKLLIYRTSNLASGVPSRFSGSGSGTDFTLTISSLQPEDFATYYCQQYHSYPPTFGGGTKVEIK: 0.000343
- suPAR_DB03_B10 (scFv, V domains shown, screened as scFv) VH: QVQLVQSGAEVKKPGASVKVSCKASGYTFTGYYMHWVRQAPGQGLEWMGWIDHENGNTIYDQKFQGRVTMTRDTSTSTVYMELSSLRSEDTAVYYCARGTDVDWFVYWGQGTLVTVSS VL: DIQMTQSPSSLSASVGDRVTITCSASSSISYMYWYQQKPGKAPKLLIYRTSNLASGVPSRFSGSGSGTDFTLTISSLQPEDFATYYCQQYHSYPPTFGGGTKVEIK: 0.000138

Ask: Which value of koff has been reported for suPAR_DB03_E06 (scFv, V domains shown, screened as scFv) VH: QVQLVQSGAEVKKPGASVKVSCKASGYTFTGQYVHWVRQAPGQGLEWMGWIDHENGNTIYDQKFQGRVTMTRDTSTSTVYMELSSLRSEDTAVYYCARGYDVDWFVYWGQGTLVTVSS VL: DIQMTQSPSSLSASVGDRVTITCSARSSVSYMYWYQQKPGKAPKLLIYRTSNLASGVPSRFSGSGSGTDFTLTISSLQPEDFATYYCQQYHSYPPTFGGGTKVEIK in the records?
Reply: 7.36e-05

Measured values drawn from patent US20250215104A1 for this set.
